Sourced from patent US12612363B2

assay: Solubility screen of 5-MeO-DMT in solvents at room temperature and reflux; details: isopropyl acetate, organic solvent or mixture, thermodynamic from solid, 5-MeO-DMT Solubility Ambient, solvent Isopropyl acetate (IPAc); ambient (room temperature)
reported metric: solubility (mg/mL)
Hi! Could you send only the number? It should be in mg/mL, unit omitted.

Problem: # lookup: solubility of COc1ccc2[nH]cc(CCN(C)C)c2c1
Result: 210

====

assay: Solubility screen of 5-MeO-DMT in solvents at room temperature and reflux; settings: water, thermodynamic from solid, 5-MeO-DMT Solubility Ambient, solvent Water; ambient (room temperature)
reported metric: solubility

Problem: # lookup: solubility of COc1ccc2[nH]cc(CCN(C)C)c2c1 [5-MeO-DMT, 5-Methoxy-N,N-dimethyltryptamine]
Result: < 50 mg/mL
